EXPERIMENTAL SYSTEM: Human recombinant FAP (Homo sapiens, UniProt Q12884)
Sequence (Q12884 1-760): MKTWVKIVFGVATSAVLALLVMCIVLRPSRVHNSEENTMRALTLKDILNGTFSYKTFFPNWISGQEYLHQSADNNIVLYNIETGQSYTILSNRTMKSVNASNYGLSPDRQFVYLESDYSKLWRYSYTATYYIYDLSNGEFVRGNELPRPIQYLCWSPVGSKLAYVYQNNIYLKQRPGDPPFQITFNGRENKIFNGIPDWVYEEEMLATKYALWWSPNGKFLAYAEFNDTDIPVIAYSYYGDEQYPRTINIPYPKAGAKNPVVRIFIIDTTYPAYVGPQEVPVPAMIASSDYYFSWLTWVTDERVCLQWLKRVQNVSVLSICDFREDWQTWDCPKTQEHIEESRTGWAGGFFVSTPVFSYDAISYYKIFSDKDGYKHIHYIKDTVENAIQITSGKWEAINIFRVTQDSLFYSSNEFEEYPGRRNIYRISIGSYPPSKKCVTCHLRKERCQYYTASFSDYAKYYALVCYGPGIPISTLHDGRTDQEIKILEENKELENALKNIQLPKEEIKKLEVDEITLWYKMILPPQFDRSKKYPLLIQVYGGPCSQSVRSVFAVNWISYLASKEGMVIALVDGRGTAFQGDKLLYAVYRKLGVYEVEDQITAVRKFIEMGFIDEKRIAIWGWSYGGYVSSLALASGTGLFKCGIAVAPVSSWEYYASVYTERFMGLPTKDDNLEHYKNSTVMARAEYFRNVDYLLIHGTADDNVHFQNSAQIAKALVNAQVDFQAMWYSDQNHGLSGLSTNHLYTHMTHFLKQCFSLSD
ASSAY SUMMARY: FRET-based FAP protease activity assay
Type: biochemical
Parameters: purchased R&D systems 3715-SE
EXPERIMENTAL PARAMETERS: pIC50 Category (Activity), recombinant human FAP, FRET substrate, 37° C.
pIC50: −log10 of the molar value. Numbered stars: 1 amine (or outer) side, 2 acyl side, 3 side chain; on linkers, the order of the positions; unused ones are H or OH. Bridge positions count the residues as written; N and C are the ends. Square brackets hold non-standard residues; d marks the D form. Peptide text beside a SMILES is read from it. * marks the point of attachment. mXylylene = c1cc(C[*:1])cc(C[*:2])c1; 3Amb = NCc1cccc(C(=O)O)c1; Octanoyl = CCCCCCCC(=O)*; Hexanoyl = CCCCCC(=O)*
List of pIC50 values.
REPORTED METRIC: pIC50

{"COMPOUND": "CCCCCCCC(=O)N[C@H]1CSCc2cccc(c2)CSC[C@@H](C(=O)N[C@@H](CC(=O)O)C(N)=O)NC(=O)[C@H](Cc2ccccc2)NC(=O)[C@H](CCC(N)=O)NC(=O)[C@H]([C@@H](C)O)NC(=O)[C@@H]2CCCN2C(=O)[C@@H]2CCCN2C1=O [3BP-3417] (Octanoyl-CPPTQFCD-NH2; linker 1-7 via mXylylene)", "EXPERIMENTAL VALUE": "7.10 to 8.00"}
{"COMPOUND": "CCCCCC(=O)N[C@H]1CSCc2cccc(c2)CSC[C@@H](C(=O)N[C@@H](CC(=O)O)C(=O)NCc2cccc(C(=O)N[C@@H](CCCNC(=N)N)C(N)=O)c2)NC(=O)[C@H](Cc2ccccc2)NC(=O)[C@H](CCC(=O)O)NC(=O)[C@H]([C@@H](C)O)NC(=O)[C@@H]2CCCN2C(=O)[C@@H]2CCCN2C1=O [3BP-3324] (Hexanoyl-CPPTEFCD[3Amb]R-NH2; linker 1-7 via mXylylene)", "EXPERIMENTAL VALUE": "> 8.00"}
{"COMPOUND": "CSCC[C@H](NC(C)=O)C(=O)N[C@H]1CSCc2cccc(c2)CSC[C@@H](C(=O)N[C@@H](CC(=O)O)C(=O)N[C@@H](Cc2c[nH]cn2)C(=O)N(C)[C@@H](Cc2ccccc2)C(=O)N[C@@H](CCCNC(=N)N)C(=O)N[C@@H](CC(=O)O)C(N)=O)NC(=O)[C@H](Cc2ccccc2)NC(=O)[C@H](CCC(=O)O)NC(=O)[C@H]2NC(=O)[C@@H]3C(CCN3C(=O)[C@@H]3CCCN3C1=O)[C@H]2O [3BP-3188]", "EXPERIMENTAL VALUE": "> 8.00"}
